The reported numbers originate from paper PMC6681697.

- Test system: LNCaP xenografts
- TEST NAME: Ex vivo biodistribution and blocking studies in mice bearing LNCaP xenografts
- EXPERIMENTAL CONTEXT: 1 h blocked (coinjection of DCFPyL 0.5 mg)
ENDPOINT NAME: spleen uptake (%ID/g)
Response body: numeric value in %ID/g, unit text excluded.

Requested field: spleen uptake. Item: C[N+](C)(Cc1ccc(C(=O)NCCCC[C@H](NC(=O)N[C@@H](CCC(=O)O)C(=O)O)C(=O)O)cc1)C[B-](F)(F)F [^18F-1]
0.13

Requested field: spleen uptake. Item: C[N+](C)(Cc1cn(CC(=O)NC[C@H]2CC[C@H](C(=O)N[C@@H](Cc3ccc4ccccc4c3)C(=O)NCCCC[C@H](NC(=O)N[C@@H](CCC(=O)O)C(=O)O)C(=O)O)CC2)nn1)C[B-](F)(F)F [^18F-5]
0.21

Requested field: spleen uptake. Item: C[N+](C)(Cc1cn(CC(=O)N[C@@H](CCC(=O)O)C(=O)NCCCC[C@H](NC(=O)[C@H](CCC(=O)O)NC(=O)Cn2cc(C[N+](C)(C)C[B-](F)(F)F)nn2)C(=O)NC[C@H]2CC[C@H](C(=O)N[C@@H](Cc3ccc4ccccc4c3)C(=O)NCCCC[C@H](NC(=O)N[C@@H](CCC(=O)O)C(=O)O)C(=O)O)CC2)nn1)C[B-](F)(F)F [^18F-8]
0.12

Next:
Requested field: spleen uptake. Item: C[N+](C)(Cc1cn(CC(=O)NCCOCCOCCC(=O)N[C@@H](Cc2ccc3ccccc3c2)C(=O)NCCCC[C@H](NC(=O)N[C@@H](CCC(=O)O)C(=O)O)C(=O)O)nn1)C[B-](F)(F)F [^18F-7]
0.15

Requested field: spleen uptake. Item: O=C(O)CC[C@H](NC(=O)N[C@@H](CCCCNC(=O)[C@H](Cc1ccc2ccccc2c1)NC(=O)[C@H]1CC[C@H](CNC(=O)Cn2cc(C[n+]3ccc([B-](F)(F)F)cc3)nn2)CC1)C(=O)O)C(=O)O [^18F-6]
0.18
